Assay: Cytotoxicity against human HL60R cells assessed as effect on cell cycle at 10 uM
Type: cell-based
Measure name: Activity

[[record]]
smiles_str = "O=C1[C@@H]2[C@H]3c4ccccc4[C@H](c4ccccc43)[C@@H]2C(=O)N1CC#CCN1CCN(Cc2ccccc2)CC1"
measure_name = "Activity"
obs_value = "Non-toxic"

[[record]]
smiles_str = "O=C1[C@@H]2[C@H]3c4ccccc4[C@H](c4ccccc43)[C@@H]2C(=O)N1CC#CCN1CCN(c2ccccc2)CC1"
measure_name = "Activity"
obs_value = "Non-toxic"

[[record]]
smiles_str = "O=C1[C@@H]2[C@H]3c4ccccc4[C@H](c4ccccc43)[C@@H]2C(=O)N1CC#CCN1CCN(C(c2ccc(F)cc2)c2ccc(F)cc2)CC1"
measure_name = "Activity"
obs_value = "Non-toxic"

